target: MMP-13 (Homo sapiens); construct: purchased Calbiochem (EMD/MERCK Biosciences); assay: Enzyme inhibiting activity of MMPs, fluorogenic peptide substrate; type: biochemical; details: APMA-activated proenzyme; substrate MOCAc-Pro-Leu-Gly-Leu-A2Pr(DNP)-Ala-Arg-NH2, fluorescent intensity; read-out: IC50 MMP-13
measured.metric: IC50 (nM)
Give bare numbers, in nM.

Example results:
- compound: "C[C@@H](NS(=O)(=O)N1CCN(c2ccc(C#Cc3ccnc(C(=O)NCc4ccc5c(c4)oc(=O)n5C)c3)cc2)CC1)C(=O)O [Compound V-2]"
  measured.on: "MMP-13 (Homo sapiens)"
  IC50 / nM: 1
- compound: "COCCOc1ccc(C#Cc2ccc(N3CCN(S(=O)(=O)N[C@H](C)C(=O)O)CC3)cc2)cc1-c1ncc(CC(=O)NCc2ccccc2)o1 [Compound V-19]"
  measured.on: "MMP-13 (Homo sapiens)"
  IC50 / nM: 8

Okay, now this compound:
Ask | IC50 of CCC[C@H](NS(=O)(=O)N1CCN(c2ccc(C#Cc3ccnc(C(=O)NCc4ccc(OC)cc4)c3)cc2)CC1)C(=O)O [Compound V-33] on MMP-13 (Homo sapiens)?
Reply | 3
